biological target: UniProt:P52699; assay: biochemical; format: biochemical; conditions: fluorescence assay, CCF2-FA substrate, 2 pM enzyme, 2 hours at 25° C.; read-out: IMP-1 IC50
Sequence (P52699 whole entry, looked up, species assumed): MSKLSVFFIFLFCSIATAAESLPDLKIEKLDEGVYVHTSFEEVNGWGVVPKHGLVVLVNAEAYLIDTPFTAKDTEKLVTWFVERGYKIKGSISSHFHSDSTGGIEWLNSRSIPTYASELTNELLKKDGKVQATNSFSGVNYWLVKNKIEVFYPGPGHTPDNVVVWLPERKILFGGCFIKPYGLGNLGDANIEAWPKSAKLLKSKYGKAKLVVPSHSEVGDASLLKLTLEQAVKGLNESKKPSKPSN
experimental endpoint: pIC50
Note: pIC50 values are expressed as the negative base-10 logarithm of concentration in M.

Consider the compound shown here: C[N+]1(CCN)CC[C@H](NS(=O)(=O)c2ccc(-c3cccc4[nH]c(N)nc34)c(-c3nn[nH]n3)c2S(N)(=O)=O)C1.O=C([O-])O (some centres unmarked) What is its recorded pIC50?
9.47

Consider the compound shown here: Nc1nc2cccc(-c3ccc(S(N)(=O)=O)c(S(N)(=O)=O)c3-c3nn[nH]n3)c2[nH]1 What is its recorded pIC50?
9.24

Consider the compound shown here: NCc1nc2c(-c3ccc(S(=O)(=O)N[C@@H]4CCNC4)c(S(N)(=O)=O)c3-c3nn[nH]n3)cccc2s1 What is its recorded pIC50?
9.27

Consider the compound shown here: NCCNS(=O)(=O)c1ccc(-c2cccc(-c3nc[nH]n3)c2)c(-c2nn[nH]n2)c1S(N)(=O)=O What is its recorded pIC50?
9.39

Consider the compound shown here: N[C@H](CO)CNS(=O)(=O)c1ccc(-c2cccc3[nH]cnc23)c(-c2nn[nH]n2)c1S(N)(=O)=O What is its recorded pIC50?
9.70

Consider the compound shown here: Nc1ncccc1-c1ccc(S(=O)(=O)N[C@@H]2CCNC2)c(S(N)(=O)=O)c1-c1nn[nH]n1 What is its recorded pIC50?
8.51

Consider the compound shown here: Nc1nc2c(-c3ccc(S(=O)(=O)N4CC(F)(F)C4)c(S(N)(=O)=O)c3-c3nnn[nH]3)cccc2s1 What is its recorded pIC50?
9.15

Consider the compound shown here: NCCNS(=O)(=O)c1ccc(C2CCC[C@H](N)C2)c(-c2nn[nH]n2)c1S(N)(=O)=O (some centres unmarked) What is its recorded pIC50?
7.05

Consider the compound shown here: Nc1ncc(-c2ccc(S(=O)(=O)N[C@H]3CNC[C@H]3N)c(S(N)(=O)=O)c2-c2nn[nH]n2)s1 What is its recorded pIC50?
8.91

Consider the compound shown here: C[C@H](CN)NS(=O)(=O)c1ccc(-c2cncc(N)c2)c(-c2nn[nH]n2)c1S(N)(=O)=O What is its recorded pIC50?
9.16

Consider the compound shown here: Nc1nc2c(-c3ccc(S(=O)(=O)NCC4(CO)CC4)c(S(N)(=O)=O)c3-c3nnn[nH]3)cccc2s1 What is its recorded pIC50?
9.54

Consider the compound shown here: N[C@@H](CO)CNS(=O)(=O)c1ccc(-c2cccc(C3N=CN=N3)c2)c(-c2nn[nH]n2)c1S(N)(=O)=O (some centres unmarked) What is its recorded pIC50?
8.49

Consider the compound shown here: CNc1nc2c(-c3ccc(S(=O)(=O)N[C@@H]4CCNC4)c(S(N)(=O)=O)c3-c3nn[nH]n3)cccc2[nH]1 What is its recorded pIC50?
9.21

Consider the compound shown here: NS(=O)(=O)c1c(S(=O)(=O)N[C@@H]2CCNC2)ccc(-c2cccn3ccnc23)c1-c1nn[nH]n1 What is its recorded pIC50?
9.77

----------
system: Pseudomonas aeruginosa MB9798 vs MB9799; settings: ratio MITC95 PA_9798/MITC95 PA_9799
Consider the following molecules; for each one, report its Efflux ratio.
# respond with the number and nothing more

Consider the molecule shown here: CC(CN1CCOCC1)NS(=O)(=O)c1ccc(-c2cccc3sc(N)nc23)c(-c2nnn[nH]2)c1S(N)(=O)=O (stereo not drawn) What is its recorded Efflux ratio?
4.00

Consider the molecule shown here: Nc1nc2c(-c3ccc(S(=O)(=O)NC[C@H]4CCCN4)c(S(N)(=O)=O)c3-c3nn[nH]n3)cccc2[nH]1 What is its recorded Efflux ratio?
1.00

Consider the molecule shown here: NCCNS(=O)(=O)c1ccc(-c2cccc3[nH]c([C@@H](N)CO)nc23)c(-c2nn[nH]n2)c1S(N)(=O)=O What is its recorded Efflux ratio?
1.00

Consider the molecule shown here: NCCNS(=O)(=O)c1ccc(-c2cccc3sc(CN)nc23)c(-c2nn[nH]n2)c1S(N)(=O)=O What is its recorded Efflux ratio?
1.00

Consider the molecule shown here: Nc1nc2c(-c3ccc(S(=O)(=O)NCC4CCC(=O)N4)c(S(N)(=O)=O)c3-c3nnn[nH]3)cccc2s1 (stereo not drawn) What is its recorded Efflux ratio?
1.00

Consider the molecule shown here: Nc1nc2c(-c3ccc(S(=O)(=O)NCC4(N)CCOCC4)c(S(N)(=O)=O)c3-c3nnn[nH]3)cccc2s1.O=CO What is its recorded Efflux ratio?
1.00

Consider the molecule shown here: Nc1ccc(-c2ccc(S(=O)(=O)NC[C@@H](N)CO)c(S(N)(=O)=O)c2-c2nn[nH]n2)cn1 What is its recorded Efflux ratio?
2.00

Consider the molecule shown here: Nc1nc2c(-c3ccc(S(=O)(=O)N[C@@H]4CCCNC4)c(S(N)(=O)=O)c3-c3nnn[nH]3)cccc2s1 What is its recorded Efflux ratio?
0.50

Consider the molecule shown here: Nc1nc2c(-c3ccc(S(=O)(=O)N[C@@H](N)c4ccccn4)c(S(N)(=O)=O)c3-c3nnn[nH]3)cccc2s1.O=C(O)C(F)(F)F What is its recorded Efflux ratio?
8.00

Consider the molecule shown here: NC[C@@H](N)CNS(=O)(=O)c1ccc(-c2cccc3[nH]c(N)nc23)c(-c2nn[nH]n2)c1S(N)(=O)=O What is its recorded Efflux ratio?
1.00

Consider the molecule shown here: CNC(=O)CNS(=O)(=O)c1ccc(-c2cccc3sc(N)nc23)c(-c2nnn[nH]2)c1S(N)(=O)=O What is its recorded Efflux ratio?
1.00

Consider the molecule shown here: Nc1ccc(-c2ccc(S(=O)(=O)NC[C@]3(N)CCNC3)c(S(N)(=O)=O)c2-c2nn[nH]n2)cn1 What is its recorded Efflux ratio?
1.00

Consider the molecule shown here: CN1CCC(N(C)S(=O)(=O)c2ccc(-c3cccc4sc(N)nc34)c(-c3nnn[nH]3)c2S(N)(=O)=O)C1 (stereo not drawn) What is its recorded Efflux ratio?
2.00

Consider the molecule shown here: NS(=O)(=O)c1c(S(=O)(=O)N[C@@H]2CCNC2)ccc(-c2cccnc2N2CCNCC2)c1-c1nn[nH]n1 What is its recorded Efflux ratio?
4.00

Consider the molecule shown here: NCc1nc2c(-c3ccc(S(=O)(=O)N[C@@H]4CCNC4)c(S(N)(=O)=O)c3-c3nn[nH]n3)cccc2s1 What is its recorded Efflux ratio?
1.00

Consider the molecule shown here: C[C@H]1NC(=O)O[C@H]1c1ccc(-c2ccc(S(=O)(=O)N[C@@H]3CCNC3)c(S(N)(=O)=O)c2-c2nnn[nH]2)cc1 What is its recorded Efflux ratio?
1.00

Consider the molecule shown here: Nc1nc2c(-c3ccc(S(=O)(=O)N4CCOCC4)c(S(N)(=O)=O)c3-c3nnn[nH]3)cccc2s1 What is its recorded Efflux ratio?
16.00

Consider the molecule shown here: Nc1nc2c(-c3ccc(S(=O)(=O)N[C@H]4CO[C@H]5[C@@H]4OC[C@H]5N)c(S(N)(=O)=O)c3-c3nnn[nH]3)cccc2s1.O=C(O)C(F)(F)F What is its recorded Efflux ratio?
2.00

Consider the molecule shown here: CN1CC2(CCN(S(=O)(=O)c3ccc(-c4cccc5sc(N)nc45)c(-c4nnn[nH]4)c3S(N)(=O)=O)C2)C1 What is its recorded Efflux ratio?
1.00

Consider the molecule shown here: NCCNS(=O)(=O)c1ccc(-c2cccc(NC[C@@H](O)CN)c2)c(-c2nn[nH]n2)c1S(N)(=O)=O What is its recorded Efflux ratio?
2.00

Consider the molecule shown here: NCC1CCCCN1S(=O)(=O)c1ccc(-c2cccc3sc(N)nc23)c(-c2nnn[nH]2)c1S(N)(=O)=O.O=C(O)C(F)(F)F (stereo not drawn) What is its recorded Efflux ratio?
1.00

Consider the molecule shown here: Nc1nc2c(-c3ccc(S(=O)(=O)N[C@H]4CN[C@H](CO)C4)c(S(N)(=O)=O)c3-c3nnn[nH]3)cccc2[nH]1 What is its recorded Efflux ratio?
0.50

Consider the molecule shown here: Nc1nc2c(-c3ccc(S(=O)(=O)N[C@@H]4CCNC4)c(S(N)(=O)=O)c3-c3nn[nH]n3)cc(I)cc2[nH]1 What is its recorded Efflux ratio?
1.00

Consider the molecule shown here: NCC(CN)NS(=O)(=O)c1ccc(-c2cccc(-c3nc[nH]n3)c2)c(-c2nn[nH]n2)c1S(N)(=O)=O What is its recorded Efflux ratio?
1.00

Consider the molecule shown here: Nc1cncc(-c2ccc(S(=O)(=O)N[C@@H]3CCNC3)c(S(N)(=O)=O)c2-c2nn[nH]n2)c1 What is its recorded Efflux ratio?
1.00

Consider the molecule shown here: CNS(=O)(=O)c1ccc(-c2cccc3cn[nH]c23)c(-c2nn[nH]n2)c1S(N)(=O)=O What is its recorded Efflux ratio?
15.99

Consider the molecule shown here: NC(=O)c1nc2c(-c3ccc(S(=O)(=O)N[C@H]4CCNC4)c(S(N)(=O)=O)c3-c3nn[nH]n3)cccc2[nH]1 What is its recorded Efflux ratio?
0.50

Entry source: patent US10221163B2
